Test: self-splicing fitness, log relative to wild type (ln ratio); higher = more splicing; Tetrahymena group I intron in knt gene, E. coli kanamycin selection, DiMSum; sequences stand for … in CUCUCU…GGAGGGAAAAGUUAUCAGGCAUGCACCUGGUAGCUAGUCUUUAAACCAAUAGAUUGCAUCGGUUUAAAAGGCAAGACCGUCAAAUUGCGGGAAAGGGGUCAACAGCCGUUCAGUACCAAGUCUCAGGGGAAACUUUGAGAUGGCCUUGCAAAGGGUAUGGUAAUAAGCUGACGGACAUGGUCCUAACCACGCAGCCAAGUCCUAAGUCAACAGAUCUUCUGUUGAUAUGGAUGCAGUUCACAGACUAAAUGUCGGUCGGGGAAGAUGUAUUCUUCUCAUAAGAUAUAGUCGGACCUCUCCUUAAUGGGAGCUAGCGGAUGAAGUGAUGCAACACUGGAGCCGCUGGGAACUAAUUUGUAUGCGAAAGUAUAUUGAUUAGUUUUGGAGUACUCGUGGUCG;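 also: selection with 25 µg/mL kanamycin versus none on LB agar overnight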
Details: 30 °C
Assign self-splicing fitness (ln) to each entry below.
One number for each entry.

Please review the following examples before continuing.
# input Indicate the recorded self-splicing fitness (ln) value for this sequence: GUUAAGCAAUAUUACGAGUC
# output -3.05

# input Indicate the recorded self-splicing fitness (ln) value for this sequence: GUUGAGCAAUAUUACGUGUA
# output -3

# input Indicate the recorded self-splicing fitness (ln) value for this sequence: AGGAAGCAAUAUUACGAGGA
# output -2.39

# input Indicate the recorded self-splicing fitness (ln) value for this sequence: AUCUAGCAAUAUUACGUAGU
# output -1.83

# input Indicate the recorded self-splicing fitness (ln) value for this sequence: GGAAAGCAAUAUUACGCUAA
# output -0.882

# input Indicate the recorded self-splicing fitness (ln) value for this sequence: GGGGAGCAAUAUUACGAAAG
# output -3.12

# input Indicate the recorded self-splicing fitness (ln) value for this sequence: GACGAGCAAUAUUACGGUGU
# output -4.63

# input Indicate the recorded self-splicing fitness (ln) value for this sequence: GUUCAGCAAUAUUACGGUAG
# output -2.08

For the 7 sequences below, give their self-splicing fitness (ln) values.
1. UACCAGCAAUAUUACGCGCC
2. UACGAGCAAUAUUACGGAUG
3. CAUUAGCAAUAUUACGAAGG
4. GCUCAGCAAUAUUACGGCAC
5. AAUGAGCAAUAUUACGUUGA
6. CCAUAGCAAUAUUACGUUGU
7. AUCCAGCAAUAUUACGGUUC

# output
-1.46
-2.95
-1.09
-1.11
-3.71
-4.79
-4.5

For the 7 sequences below, give their self-splicing fitness (ln) values.
1. CAACAGCAAUAUUACGCACA
2. CAAAAGCAAUAUUACGCAGA
3. AUCCAGCAAUAUUACGGAUG
4. CUCGAGCAAUAUUACGUGAA
5. ACAAAGCAAUAUUACGGUAA
6. GGUCAGCAAUAUUACGGCCA
7. GAUUAGCAAUAUUACGAAAC

# output
[-1.23, -2.57, -2.21, -2.47, -2.45, -2.33, -2.38]

For the 2 sequences below, give their self-splicing fitness (ln) values.
1. GAUUAGCAAUAUUACGGGUU
2. CCUCAGCAAUAUUACGAGCC

# output
1: -2.59; 2: -0.962

* * *

Experiment: self-splicing fitness, log relative to wild type (ln ratio); higher = more splicing; Tetrahymena group I intron in knt gene, E. coli kanamycin selection, DiMSum; sequences stand for … in CUCUCU…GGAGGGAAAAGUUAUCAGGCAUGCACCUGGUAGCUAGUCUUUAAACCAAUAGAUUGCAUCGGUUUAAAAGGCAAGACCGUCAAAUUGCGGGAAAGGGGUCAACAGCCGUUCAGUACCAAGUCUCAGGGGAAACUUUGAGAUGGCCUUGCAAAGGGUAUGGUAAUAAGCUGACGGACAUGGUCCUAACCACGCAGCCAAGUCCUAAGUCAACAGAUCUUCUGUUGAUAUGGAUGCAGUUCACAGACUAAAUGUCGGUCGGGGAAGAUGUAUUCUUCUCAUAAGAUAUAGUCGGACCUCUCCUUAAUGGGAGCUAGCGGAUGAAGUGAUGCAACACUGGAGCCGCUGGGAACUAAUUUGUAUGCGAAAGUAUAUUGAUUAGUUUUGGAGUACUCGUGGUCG
Settings: 30 °C
Outcome Measure: self-splicing fitness (ln)
Numbers only.

For the 3 sequences below, give their self-splicing fitness (ln) values.
1. GGGCAGCAAUAUUACGAGAU
2. CGACAGCAAUAUUACGUGAU
3. AUGCAGCAAUAUUACGGAGU

# output
1: -3.14; 2: -3.44; 3: -1.78

For the 2 sequences below, give their self-splicing fitness (ln) values.
1. UCGGAGCAAUAUUACGUAAA
2. UCGUAGCAAUAUUACGGGGC

# output
-3.16
-2.26

For the 7 sequences below, give their self-splicing fitness (ln) values.
1. ACGUAGCAAUAUUACGUCUC
2. GCCUAGCAAUAUUACGGGCG
3. AAAAAGCAAUAUUACGGGUU
4. CUAGAGCAAUAUUACGUUUG
5. UUGUAGCAAUAUUACGGGCA
6. GCUCAGCAAUAUUACGUCAA
7. ACACAGCAAUAUUACGUUUU

# output
1: -2.84; 2: -2.03; 3: -1.38; 4: -1.33; 5: -1.8; 6: -1.84; 7: -3.42

* * *

Test: self-splicing fitness, log relative to wild type (ln ratio); higher = more splicing; Tetrahymena group I intron in knt gene, E. coli kanamycin selection, DiMSum; sequences stand for … in CUCUCU…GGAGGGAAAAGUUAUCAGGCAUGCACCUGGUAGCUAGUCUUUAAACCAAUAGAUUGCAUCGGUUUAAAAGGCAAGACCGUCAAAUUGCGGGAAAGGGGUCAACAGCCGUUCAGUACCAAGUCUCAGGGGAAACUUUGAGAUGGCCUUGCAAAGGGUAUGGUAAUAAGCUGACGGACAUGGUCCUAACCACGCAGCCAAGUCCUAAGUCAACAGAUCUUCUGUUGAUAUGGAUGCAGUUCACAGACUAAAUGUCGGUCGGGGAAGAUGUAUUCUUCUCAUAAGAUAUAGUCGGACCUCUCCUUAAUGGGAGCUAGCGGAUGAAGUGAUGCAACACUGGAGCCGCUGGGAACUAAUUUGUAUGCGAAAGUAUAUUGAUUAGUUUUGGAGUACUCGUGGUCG
Conditions: 37 °C
Threshold check on self-splicing fitness (ln): at or above -2 gives condition met, strictly below gives condition not met.

# input Please indicate if the recorded self-splicing fitness (ln) for CCACAGCAAUAUUACGAUUA meets or exceeds -2.
# output condition not met

# input Please indicate if the recorded self-splicing fitness (ln) for AACAAGCAAUAUUACGCCCC meets or exceeds -2.
# output condition met

# input Please indicate if the recorded self-splicing fitness (ln) for CGUCAGCAAUAUUACGAGUA meets or exceeds -2.
# output condition not met

# input Please indicate if the recorded self-splicing fitness (ln) for UGUGAGCAAUAUUACGCCCG meets or exceeds -2.
# output condition met

# input Please indicate if the recorded self-splicing fitness (ln) for UACCAGCAAUAUUACGCGCC meets or exceeds -2.
# output condition met

# input Please indicate if the recorded self-splicing fitness (ln) for ACCAAGCAAUAUUACGUAUA meets or exceeds -2.
# output condition not met

# input Please indicate if the recorded self-splicing fitness (ln) for AGGCAGCAAUAUUACGAGGG meets or exceeds -2.
# output condition not met

# input Please indicate if the recorded self-splicing fitness (ln) for AGAUAGCAAUAUUACGCUGG meets or exceeds -2.
# output condition met

* * *

Assign self-splicing fitness (ln) to each entry below.
Test: self-splicing fitness, log relative to wild type (ln ratio); higher = more splicing; Tetrahymena group I intron in knt gene, E. coli kanamycin selection, DiMSum; sequences stand for … in CUCUCU…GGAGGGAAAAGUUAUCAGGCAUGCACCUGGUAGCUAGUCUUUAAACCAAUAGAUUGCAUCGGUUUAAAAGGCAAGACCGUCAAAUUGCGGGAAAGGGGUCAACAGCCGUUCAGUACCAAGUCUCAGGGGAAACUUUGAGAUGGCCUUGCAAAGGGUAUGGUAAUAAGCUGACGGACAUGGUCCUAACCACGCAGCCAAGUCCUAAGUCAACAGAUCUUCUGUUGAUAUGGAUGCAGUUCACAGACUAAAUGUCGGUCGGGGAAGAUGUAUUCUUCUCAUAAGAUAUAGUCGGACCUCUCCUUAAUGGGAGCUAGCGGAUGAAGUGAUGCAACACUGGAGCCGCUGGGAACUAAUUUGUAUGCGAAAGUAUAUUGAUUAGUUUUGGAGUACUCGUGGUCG
Settings: 37 °C
Numbers only.

Please review the following examples before continuing.
# input Indicate the recorded self-splicing fitness (ln) value for this sequence: GUGGAGCAAUAUUACGCGCA
# output -1.47

# input Indicate the recorded self-splicing fitness (ln) value for this sequence: AAUCAGCAAUAUUACGCGAG
# output -1.07

# input Indicate the recorded self-splicing fitness (ln) value for this sequence: GCGAAGCAAUAUUACGCGGA
# output -1.26

# input Indicate the recorded self-splicing fitness (ln) value for this sequence: CGCAAGCAAUAUUACGUGCA
# output -0.135

# input Indicate the recorded self-splicing fitness (ln) value for this sequence: UGUCAGCAAUAUUACGCAUG
# output 0.415

For the 2 sequences below, give their self-splicing fitness (ln) values.
1. CUAAAGCAAUAUUACGAGGU
2. CUGCAGCAAUAUUACGUAAU

# output
1. -2.81
2. -2.04
